- Experimental Target: IRAK4 (Homo sapiens, UniProt Q9NWZ3)
- Construct: purchased CARNA Bioscience 09-145
- Sequence (Q9NWZ3 1-460): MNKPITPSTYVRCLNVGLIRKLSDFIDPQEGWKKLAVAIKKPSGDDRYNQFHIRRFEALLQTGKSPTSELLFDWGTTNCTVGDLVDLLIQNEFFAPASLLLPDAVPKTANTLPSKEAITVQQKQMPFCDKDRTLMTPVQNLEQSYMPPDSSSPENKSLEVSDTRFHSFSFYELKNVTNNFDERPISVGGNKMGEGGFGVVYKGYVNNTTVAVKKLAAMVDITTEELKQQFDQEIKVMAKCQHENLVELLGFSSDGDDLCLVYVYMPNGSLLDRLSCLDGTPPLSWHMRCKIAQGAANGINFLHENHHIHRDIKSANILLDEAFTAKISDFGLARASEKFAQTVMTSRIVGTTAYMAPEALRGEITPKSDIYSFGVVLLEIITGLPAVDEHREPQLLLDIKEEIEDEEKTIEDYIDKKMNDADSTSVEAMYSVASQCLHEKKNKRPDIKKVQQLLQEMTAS
- Measurement Notes: IRAK-4 activity inhibition assay (Caliper, Peptide 8, 37 μM ATP)
- Format: biochemical
- Condition Label: 3.5 nM IRAK4, 1.5 μM Peptide 8, 37 μM ATP, 28° C. 40 minutes; read-out: IRAK-4 activity inhibition IC50
pIC50: −log10 of the molar value.
Measure: pIC50

{"Molecule": "C[C@@H]1CCc2sc3ncnc(N[C@H]4CC[C@H](N(C)C)CC4)c3c2C1", "Obs Value": "> 5.30"}
{"Molecule": "N[C@H]1CC[C@H](Nc2ncnc3sc4c(c23)CCC4)CC1", "Obs Value": "> 5.30"}
{"Molecule": "CN(Cc1cccc(C(N)=O)c1)[C@H]1CC[C@H](Nc2ncnc3sc4c(c23)CCC4)CC1", "Obs Value": "> 5.30"}

"CN(CC(=O)N1CCOCC1)[C@H]1CC[C@H](Nc2ncnc3sc4c(c23)CCC4)CC1" yielded pIC50 of > 5.30

// pIC50 lookup, molecule = CC1CCc2sc3ncnc(N4CCC(C(N)=O)CC4)c3c2C1 (stereo not drawn) , result: 4.70 to 5.30

Summary for this molecule, CNC1CCCC(Oc2ncnc3sc4c(c23)CCC4)CC1 (stereo not drawn) : pIC50 is 4.70 to 5.30

The molecule listed as "N[C@H]1CC[C@@H](Nc2ncnc3sc4c(c23)CCC4)CC1" has a reported pIC50 of 4.70 to 5.30

Documented pIC50 of "CN(CCCc1ccccc1)[C@H]1CC[C@H](Nc2ncnc3sc4c(c23)CCC4)CC1" : > 5.30

Measured pIC50, "CN[C@H]1CC[C@H](Nc2ncnc3sc4c(c23)CC(C)(C)CC4)CC1" : > 5.30

For "c1nc(N[C@H]2CC[C@@H](N3CCOCC3)CC2)c2c3c(sc2n1)CCC3" the molecule record lists pIC50 as 4.70 to 5.30

Entry under test: "CC1(C)CCc2sc3ncnc(N4CCC(C(N)=O)CC4)c3c2C1" . Its pIC50 was 4.30 to 4.70

----------
molecules and their reported IC50
- Experimental Target: IRAK4 (Homo sapiens)
- Construct: purchased CARNA Bioscience 09-145
- Measurement Notes: IRAK-4 activity inhibition assay (Caliper, Peptide 8, 37 μM ATP)
- Type: biochemical
- Condition Label: 3.5 nM IRAK4, 1.5 μM Peptide 8, 37 μM ATP, 28° C. 40 minutes; read-out: IRAK-4 activity inhibition IC50

Field: example entries. Status: answers known.
{"Molecule": "CN(C)[C@H]1CC[C@H](Nc2ncnc3sc4c(c23)CC(C)(C)CC4)CC1 [Compound I-40]", "IC50": "< 5 µM"}
{"Molecule": "CCC(C)c1ccc(S(=O)(=O)N2CCN(c3ncnc4sc5c(c34)CCC(C)C5)CC2)cc1 (stereo not shown) [Compound I-24]", "IC50": "> 50 µM"}
{"Molecule": "CN(Cc1c[nH]c2ccccc12)[C@H]1CC[C@H](Nc2ncnc3sc4c(c23)CCC4)CC1 [Compound I-110]", "IC50": "< 5 µM"}

// IC50 value for CN[C@H]1CC[C@@H](Nc2ncnc3sc4c(c23)CCC4)CC1 [Compound I-156] : 20 to 50 µM

----------
- Experimental Target: IRAK4 (Homo sapiens, UniProt Q9NWZ3)
- Construct: purchased CARNA Bioscience 09-145
- Measurement Notes: IRAK-4 activity inhibition assay (Caliper, Peptide 8, 37 μM ATP)
- Format: biochemical
- Condition Label: 3.5 nM IRAK4, 1.5 μM Peptide 8, 37 μM ATP, 28° C. 40 minutes; read-out: IRAK-4 activity inhibition IC50
Measure: IC50

{"Compound": "NC(=O)C1CCN(c2ncnc3sc4c(c23)CCCC4)CC1 [Compound I-2]", "Obs Value": "20 to 50 µM"}
{"Compound": "CCN[C@H]1CC[C@H](Nc2ncnc3sc4c(c23)CCC4)CC1 [Compound I-71]", "Obs Value": "< 5 µM"}
{"Compound": "O=C(O)CN[C@H]1CC[C@H](Nc2ncnc3sc4c(c23)CCC4)CC1", "Obs Value": "5 to 20 µM"}

Lookup result for "c1nc(N[C@H]2CC[C@H](N3CCOCC3)CC2)c2c3c(sc2n1)CCC3" ; measured IC50: < 5 µM

"COCCN(C)[C@H]1CC[C@H](Nc2ncnc3sc4c(c23)CCC4)CC1" has a reported IC50 of < 5 µM

In plain terms, "CN[C@H]1CC[C@H](Nc2ncnc3sc4c(c23)CCC4)CC1" has a documented IC50 of < 5 µM

Sure, the documented IC50 for "CN(CCc1ccccc1)[C@H]1CC[C@H](Oc2ncnc3sc4c(c23)CCC4)CC1" is < 5 µM

The reported value for "Cc1sc2ncnc(N[C@H]3CC[C@H](N)CC3)c2c1C" in terms of IC50 is < 5 µM

For "CN(CCc1ccccc1Cl)[C@H]1CC[C@H](Nc2ncnc3sc4c(c23)CCC4)CC1" the compound record lists IC50 as < 5 µM

Lookup result for "CN(C)CC1CCN(c2ncnc3sc4c(c23)CCC4)CC1" ; measured IC50: > 50 µM

Per the records, this compound ( CC1CCc2sc3ncnc(NC4CCCC(O)C4)c3c2C1 (mixture of isomers) ) has IC50 equal to 5 to 20 µM

----------
- Experimental Target: IRAK4 (Homo sapiens)
- Construct: purchased CARNA Bioscience 09-145
- Sequence (Q9NWZ3 1-460): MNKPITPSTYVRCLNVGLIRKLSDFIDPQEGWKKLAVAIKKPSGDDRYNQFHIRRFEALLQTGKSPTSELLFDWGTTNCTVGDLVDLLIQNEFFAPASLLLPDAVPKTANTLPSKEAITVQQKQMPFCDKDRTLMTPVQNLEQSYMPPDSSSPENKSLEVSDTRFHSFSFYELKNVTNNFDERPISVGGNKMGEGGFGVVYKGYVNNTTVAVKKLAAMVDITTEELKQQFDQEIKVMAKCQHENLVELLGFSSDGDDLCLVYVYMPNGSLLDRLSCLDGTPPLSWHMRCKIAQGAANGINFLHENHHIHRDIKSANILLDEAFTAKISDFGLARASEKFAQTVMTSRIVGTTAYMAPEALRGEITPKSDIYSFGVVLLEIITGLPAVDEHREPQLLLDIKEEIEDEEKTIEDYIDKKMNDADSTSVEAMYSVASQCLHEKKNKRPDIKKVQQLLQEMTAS
- Measurement Notes: IRAK-4 activity inhibition assay (Caliper, Peptide 8, 37 μM ATP)
- Assay type: biochemical
- Condition Label: 3.5 nM IRAK4, 1.5 μM Peptide 8, 37 μM ATP, 28° C. 40 minutes; read-out: IRAK-4 activity inhibition IC50
Measure: IC50

Please review the following examples before continuing.
{"Molecule": "CCN(CC)[C@H]1CC[C@H](Nc2ncnc3sc4c(c23)CCC4)CC1 [Compound I-72]", "IC50": "< 5 µM"}
{"Molecule": "CN[C@H]1CC[C@H](Nc2ncnc3sc4c(c23)CC(C)CC4)CC1 (stereo partly shown) [Compound I-52]", "IC50": "< 5 µM"}
{"Molecule": "CC1CCc2c(sc3ncnc(N4CCN(S(=O)(=O)c5ccc(C(C)(C)C)cc5)CC4)c23)C1 (stereo not shown) [Compound I-23]", "IC50": "20 to 50 µM"}

Consider the additional molecule presented here.
// sample CN(CC(=O)N1CCCC1)[C@H]1CC[C@H](Nc2ncnc3sc4c(c23)CCC4)CC1 [Compound I-124] , its IC50 was < 5 µM
